- method: Assessment of solubility (McIlvaine buffers, 24 h shake, UPLC-UV)
- Type: physicochemical
- condition-label: pH 4.5, aqueous buffer, kinetic from dmso stock
- Experimental: Solubility is measured by the following method. 100 uL, 10 mM DMSO stock solution of each compound is prepared in a 96 well plate format. The experiment is done in single determination at 3 pH values (2.2, 4.5 and 6.8). For each pH and one reference, 40 uL of each compound is needed. McIlvaine pH 2.2: To 2.076 g citric acid monohydrate and 0.043 g Na2HPO4×2H2O add 100 ml deionized water […] The samples are measured with UPLC-UV using the chromatographic method described below. […]
The entries below are paired with their reported solubility at 24 h.
measured-metric: solubility at 24 h (µg/mL)

COc1c(C(=O)O)cnn1-c1cccc(-c2cccc(C)c2OCc2ccc3c(c2)CCN(C[C@@H]2CCOC2)C3)n1 ... 77
Cc1cccc(-c2cccc(-n3ncc(C(=O)O)c3OC(C)C)n2)c1OCc1ccc2c(c1)CCN([C@H]1CCOC1)C2 ... 69
CCOc1c(C(=O)O)cnn1-c1cccc(-c2cccc(C)c2OCc2ccc3c(c2C)CCN(C2COC2)CC3)n1 ... 80
CCOc1c(C(=O)O)cnn1-c1cccc(-c2cccc(C)c2OCc2ccc3c(c2)CCN(CC2CCCO2)C3)n1 (stereo not shown) ... 73
COc1c(C(=O)O)cnn1-c1cccc(-c2cccc(C)c2OCc2ccc3c(c2)CCN(CC2(C)COC2)C3)n1 ... 90
COc1c(C(=O)O)cnn1-c1cccc(-c2cccc(C)c2OCc2ccc3c(c2C)CCN([C@H]2CCOC2)C3)n1 ... 72
COc1c(C(=O)O)cnn1-c1cccc(-c2cccc(C)c2OCc2cc(F)c3c(c2)CCN(C[C@H]2CCCCO2)C3)n1 ... 81
